Below is a list of entries, each paired with its recorded inhibition value.
- Tested System: Sterol O-acyltransferase 1 (Rattus norvegicus) (UniProt O70536)
- Sequence (O70536 whole entry): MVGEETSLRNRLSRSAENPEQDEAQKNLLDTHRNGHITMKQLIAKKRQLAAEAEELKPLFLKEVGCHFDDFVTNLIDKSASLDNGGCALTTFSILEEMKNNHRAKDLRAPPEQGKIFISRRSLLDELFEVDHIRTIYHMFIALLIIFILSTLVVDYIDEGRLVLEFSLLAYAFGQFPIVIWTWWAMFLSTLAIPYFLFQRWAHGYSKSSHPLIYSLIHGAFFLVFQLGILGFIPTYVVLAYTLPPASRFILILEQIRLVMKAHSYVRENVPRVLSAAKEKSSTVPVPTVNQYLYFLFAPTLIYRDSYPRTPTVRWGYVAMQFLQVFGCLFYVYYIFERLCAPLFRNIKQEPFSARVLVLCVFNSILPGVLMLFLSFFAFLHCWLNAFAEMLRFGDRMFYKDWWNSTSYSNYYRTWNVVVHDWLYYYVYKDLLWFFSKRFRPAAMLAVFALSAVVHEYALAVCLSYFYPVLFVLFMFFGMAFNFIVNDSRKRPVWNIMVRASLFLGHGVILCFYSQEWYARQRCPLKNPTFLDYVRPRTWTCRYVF
- Assay Explanation: In vitro percentage inhibition against acyl coenzyme A:cholesterol acyltransferase derived from rat adrenals
- Set-up: concentration or dose not given beside the values
- Conditions: concentration not given here

Molecule: CCCCN(CCCC)C(=O)Nc1cccc(C)c1C
inhibition / %: 88
--
Molecule: CCCCN(CCCC)C(=O)Nc1ccc(F)cc1
inhibition / %: 56
--
Molecule: O=C(Nc1ccc(Br)cc1Br)N(Cc1ccccc1)c1ccccc1
inhibition / %: 82
--
Molecule: CCCCN(CCCC)C(=O)Nc1c(C)cccc1C
inhibition / %: 85
--
Molecule: CCCCN(Cc1ccccc1)C(=O)Nc1ccc(C)cc1
inhibition / %: 14
--
Molecule: CCOc1ccc(NC(=O)N(Cc2ccccc2)Cc2ccccc2)cc1
inhibition / %: 96
--
Molecule: CCCN(CCC)C(=O)Nc1ccc(C)cc1C
inhibition / %: 8
--
Molecule: CCCCN(Cc1ccccc1)C(=O)Nc1ccc(C)cc1C
inhibition / %: 91
--
Molecule: Cc1cccc(NC(=O)N(Cc2ccccc2)Cc2ccccc2)c1
inhibition / %: 89
--
Molecule: CCCCN(CCCC)C(=O)Nc1ccc(OC)cc1
inhibition / %: 59
--
Molecule: O=C(Nc1ccc(Br)cc1)N(Cc1ccccc1)Cc1ccccc1
inhibition / %: 80
--
Molecule: O=C(Nc1ccc(Cl)cc1)N(Cc1ccccc1)c1ccccc1
inhibition / %: 68
--
Molecule: Cc1ccc(NC(=O)N(C)C)c(C)c1
inhibition / %: -7
--
Molecule: CCCCN(CCCC)C(=O)Nc1ccc(C)cc1
inhibition / %: 80
--
Molecule: CCCCN(Cc1ccccc1)C(=O)Nc1cc(C)ccc1C
inhibition / %: 93
--
Molecule: Cc1ccc(NC(=O)N(C2CCCC2)C2CCCC2)c(C)c1
inhibition / %: 90
--
Molecule: CCCCN(CCCC)C(=O)Nc1ccccc1Br
inhibition / %: 51
--
Molecule: CCCCN(C)C(=O)Nc1ccc(Cl)c(Cl)c1
inhibition / %: 64
--
Molecule: CCCCN(Cc1ccccc1)C(=O)Nc1cc(OC)c(OC)c(OC)c1
inhibition / %: 74
--
Molecule: CCCCN(Cc1ccc2c(c1)OCO2)C(=O)Nc1ccc(C)cc1C
inhibition / %: 88
--
Molecule: O=C(Nc1ccc(Oc2ccccc2)cc1)N(Cc1ccccc1)Cc1ccccc1
inhibition / %: 94
--
Molecule: O=C(Nc1ccccc1Cl)N(Cc1ccccc1)Cc1ccccc1
inhibition / %: 88
--
Molecule: CCCCN(Cc1ccccc1)C(=O)Nc1cc(Cl)ccc1O
inhibition / %: 86
--
Molecule: CCCCN(Cc1ccccc1)C(=O)Nc1c(C)cccc1C
inhibition / %: 83
--
Molecule: CCCCN(Cc1ccccc1)C(=O)Nc1ccc(Cl)c(Cl)c1
inhibition / %: 96
--
Molecule: COc1ccc(OC)c(NC(=O)N(Cc2ccccc2)Cc2ccccc2)c1
inhibition / %: 88

---

- Tested System: Sterol O-acyltransferase 1 (Rattus norvegicus) (UniProt O70536)
- Assay Explanation: Liver hypolipidemic activity in rats
- Type: functional
Label criterion met when LS is strictly below 80%; at or above that, label criterion not met.

Molecule: Cc1ccc(NC(=O)N(Cc2ccccc2)Cc2ccccc2)cc1C
Assigned Category: criterion met
--
Molecule: O=C(Nc1ccccc1C(F)(F)F)N(Cc1ccccc1)Cc1ccccc1
Assigned Category: criterion met
--
Molecule: COc1cccc(NC(=O)NCc2ccccc2)c1
Assigned Category: criterion not met
--
Molecule: CCCCN(Cc1ccccc1)C(=O)Nc1cccc(C(F)(F)F)c1
Assigned Category: criterion not met
--
Molecule: CC(C)(C)CCN(Cc1cccs1)C(=O)Nc1ccc(F)cc1F
Assigned Category: criterion met
--
Molecule: CCCCCCCN(CCCCCCC)C(=O)Nc1ccc(C)cc1C
Assigned Category: criterion met
